# TESTED_SYSTEM: M2 receptor (Homo sapiens)
# Sequence (P08172 whole entry): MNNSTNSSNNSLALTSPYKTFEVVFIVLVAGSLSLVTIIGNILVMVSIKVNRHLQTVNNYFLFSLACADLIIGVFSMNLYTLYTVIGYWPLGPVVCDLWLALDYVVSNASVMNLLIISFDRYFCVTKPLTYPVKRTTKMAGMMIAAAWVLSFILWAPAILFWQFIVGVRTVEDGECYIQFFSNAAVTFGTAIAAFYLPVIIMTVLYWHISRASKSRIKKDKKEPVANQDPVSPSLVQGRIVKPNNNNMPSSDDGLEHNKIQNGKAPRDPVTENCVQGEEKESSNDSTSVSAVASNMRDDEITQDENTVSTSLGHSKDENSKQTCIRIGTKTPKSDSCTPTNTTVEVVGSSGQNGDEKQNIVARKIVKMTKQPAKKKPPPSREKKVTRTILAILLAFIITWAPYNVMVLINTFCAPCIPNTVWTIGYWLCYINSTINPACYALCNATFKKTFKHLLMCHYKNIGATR
# TEST_METHOD_NOTES: BRET real-time monitoring of G-protein activation via M2 in HEK293T/17 cells
# Format: cell-based
# Set-up: expressed in transfected cells; host or cells: HEK293T/17 cells, transient transfection
# MEASUREMENT_CONTEXT: saturating concentration (100 μM; 1 mM for JB-12-2, JB-13-1)
REPORTED_ENDPOINT: Activation of Gαi/o and Gα15 types

COMPOUND	RESULT
C[N+]1(Cc2ccc(Cl)s2)CC=CCC1 (stereo not shown)	did not detect
c1csc(C[N+]23CCC(CC2)CC3)c1	did not detect

====

# TESTED_SYSTEM: M4 muscarinic receptor (Homo sapiens, UniProt P08173)
# Construct: membranes
# Sequence (P08173 1-479): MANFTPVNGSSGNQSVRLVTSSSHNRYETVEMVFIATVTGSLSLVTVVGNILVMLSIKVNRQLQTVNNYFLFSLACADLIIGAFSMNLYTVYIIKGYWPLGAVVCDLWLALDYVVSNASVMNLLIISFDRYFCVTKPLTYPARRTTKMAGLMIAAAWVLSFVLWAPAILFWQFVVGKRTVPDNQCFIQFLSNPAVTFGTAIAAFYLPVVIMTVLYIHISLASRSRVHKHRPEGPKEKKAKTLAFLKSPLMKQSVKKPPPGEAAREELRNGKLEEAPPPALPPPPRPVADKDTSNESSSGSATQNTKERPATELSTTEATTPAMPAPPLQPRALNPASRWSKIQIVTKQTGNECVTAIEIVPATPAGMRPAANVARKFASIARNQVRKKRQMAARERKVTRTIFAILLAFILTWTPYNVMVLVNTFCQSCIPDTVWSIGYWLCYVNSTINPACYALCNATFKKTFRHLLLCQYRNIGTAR
# TEST_METHOD_NOTES: [3H]NMS competition binding, membranes from CHO cells expressing M4
pKi: −log10 of the molar value.

COMPOUND	pKi
C[N+]1(Cc2cccs2)CCOCC1	4.77
COC(=O)C1=CCC[N+](C)(Cc2cccs2)C1 (stereo not drawn)	4.64
c1csc(C[N+]23CCC(CC2)CC3)c1	5.34

====

Items are presented alongside their recorded Ki.
# TESTED_SYSTEM: M3 muscarinic receptor (Homo sapiens, UniProt P20309)
# Construct: membranes
# Sequence (P20309 whole entry): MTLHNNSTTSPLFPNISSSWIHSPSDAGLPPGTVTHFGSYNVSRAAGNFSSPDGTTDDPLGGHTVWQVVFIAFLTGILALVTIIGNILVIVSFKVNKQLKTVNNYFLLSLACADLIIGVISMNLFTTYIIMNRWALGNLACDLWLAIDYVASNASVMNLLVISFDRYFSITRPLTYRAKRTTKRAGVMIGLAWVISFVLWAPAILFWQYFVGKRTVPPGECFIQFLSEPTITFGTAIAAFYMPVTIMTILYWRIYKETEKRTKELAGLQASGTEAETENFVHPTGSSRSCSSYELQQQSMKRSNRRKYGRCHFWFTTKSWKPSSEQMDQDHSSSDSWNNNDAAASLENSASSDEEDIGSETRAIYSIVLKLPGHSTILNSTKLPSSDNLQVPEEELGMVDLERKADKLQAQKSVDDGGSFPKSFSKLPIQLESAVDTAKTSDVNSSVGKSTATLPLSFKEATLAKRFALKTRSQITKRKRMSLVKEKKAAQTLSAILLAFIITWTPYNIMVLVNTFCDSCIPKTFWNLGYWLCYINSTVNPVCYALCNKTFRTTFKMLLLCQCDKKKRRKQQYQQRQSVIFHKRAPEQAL
# TEST_METHOD_NOTES: [3H]NMS competition binding, membranes from CHO cells expressing M3
# MEASUREMENT_CONTEXT: competition with [3H]NMS, mean ± SD, three experiments, read-out: Binding affinity, negative logarithm of Ki (converted)
REPORTED_ENDPOINT: Ki (µM)

COMPOUND	TESTED_SYSTEM	REPORTED_ENDPOINT	QUALIFIER_OPERATOR	QUANTITATIVE_RESULT
COC(=O)C1=CCCN(Cc2cccs2)C1	M3 muscarinic receptor (Homo sapiens, UniProt P20309)	Ki	=	355
c1csc(CN2CCOCC2)c1	M3 muscarinic receptor (Homo sapiens, UniProt P20309)	Ki	>	1000
COC(=O)C1=CCC[N+](C)(Cc2cccs2)C1 (centres unmarked)	M3 muscarinic receptor (Homo sapiens, UniProt P20309)	Ki	=	126
c1csc(C[N+]23CCC(CC2)CC3)c1	M3 muscarinic receptor (Homo sapiens, UniProt P20309)	Ki	=	14.8
C[N+]1(Cc2cccs2)CCOCC1	M3 muscarinic receptor (Homo sapiens, UniProt P20309)	Ki	=	93.3
